# Test system: MCF7 breast
# TEST PROTOCOL: NCI-60 one-dose screen, 48 h
# RECORDED CONDITIONS: 10 µM unless noted
This is part of a sample that, as a whole, favours compounds with a hit. Of some 83,000 tested, about 20% had one in any assay. Calls of active or inactive are those of the source. How the source made its calls: active means growth percent below 10; inactive means the rest.
Answer with one of the outcomes given here: active, inactive

Some solved entries appear below for comparison.
- MOLECULE: "CC1CC(C)S(=O)(=O)C1 (stereo unspecified)"
  CLASS NAME: "inactive"
- MOLECULE: "CC(=O)OC/C(C)=C\\CC(C)COC(C)=O (stereo unspecified)"
  CLASS NAME: "inactive"
- MOLECULE: "CC1(C)CC(=O)C=C(N)C1"
  CLASS NAME: "inactive"
- MOLECULE: "O=S(=O)(O)c1ccc(O)c(C2CCCCC2)c1"
  CLASS NAME: "inactive"
- MOLECULE: "O=S(=O)(O)c1cccnc1"
  CLASS NAME: "inactive"

Data request: Field: outcome | Entry: Cc1c(Cl)cccc1NC(=S)NC(=O)c1ccccc1
Data returned: inactive

Data request: Field: outcome | Entry: NNC(=O)c1ccccc1N
Data returned: inactive

Data request: Field: outcome | Entry: Oc1ccc(CCC2CCNc3ccccc32)cc1 (stereo unspecified)
Data returned: inactive
